Each record here notes measured inhibition.
run-description: A qHTS for Small Molecule Inhibitors of Shiga Toxin; further: 0% is about no effect
condition-context: Vero cells, Shiga toxin protein synthesis inhibition reporter; at 38.7 µM, hits give high values
The campaign covered roughly 290,000 compounds. About 27,000 (9.3%) were called active. Many of the other results were omitted from the sample, so actives are more common in it than they were.

>  <compound-string>
O=C(/C=C/c1ccccc1)c1ccoc1

>  <inhibition / %>
26

$$$$
>  <compound-string>
Fc1ccc(-c2ccc(CNCc3ccccn3)o2)cc1Cl

>  <inhibition / %>
2.57

$$$$
>  <compound-string>
Cc1ccc(Nc2ncnc3c2cnn3C)c(C)c1

>  <inhibition / %>
2.4

$$$$
>  <compound-string>
Cc1ccc(-n2ncc3c(Nc4cccc(C(=O)O)c4)ncnc32)cc1

>  <inhibition / %>
76.6

$$$$
>  <compound-string>
CC(=O)Oc1ccc(C)cc1N1C(=O)c2ccc(C(=O)O)cc2C1=O

>  <inhibition / %>
21.4

$$$$
>  <compound-string>
O=C(CN1CCN(S(=O)(=O)/C=C/c2ccccc2)CC1)Nc1ccc(N2CCOCC2)cc1

>  <inhibition / %>
-7.43

$$$$

###

run-description: A qHTS for Small Molecule Inhibitors of Shiga Toxin; further: 0% is about no effect
condition-context: Vero cells, Shiga toxin protein synthesis inhibition reporter; at 38.7 µM, hits give high values
Out of some 290,000 compounds screened, about 27,000 (9.3%) were called active. The list comes from a sample in which actives are over-represented; it also holds close analogues and randomly drawn compounds.
Listed next: entries and their corresponding inhibition.

>  <compound>
CN(C)CCCNC(=S)N1CCN(c2nc(-c3ccccc3)cs2)CC1

>  <units-of-measure>
%

>  <inhibition>
23.7

$$$$
>  <compound>
CCOC(=O)c1cc(=O)c2ccc(OCc3ccccc3)cc2o1

>  <units-of-measure>
%

>  <inhibition>
-1.81

$$$$
>  <compound>
O=C(NCc1cccc(CNC(=O)Nc2cccc(O)c2)c1)Nc1cccc(O)c1

>  <units-of-measure>
%

>  <inhibition>
17.1

$$$$
>  <compound>
COCCCNC(=O)CN1C(=O)CSc2ccc(S(=O)(=O)N3CCOCC3)cc21

>  <units-of-measure>
%

>  <inhibition>
15.9

$$$$
>  <compound>
CCC(C)c1ccc(NC(=S)NCc2ccccn2)cc1 (stereo unspecified)

>  <units-of-measure>
%

>  <inhibition>
56.9

$$$$
>  <compound>
COc1cccc(S(=O)(=O)NCc2ccc(C(=O)NCc3ccccn3)cc2)c1

>  <units-of-measure>
%

>  <inhibition>
-7.83

$$$$

###

run-description: A qHTS for Small Molecule Inhibitors of Shiga Toxin; further: 0% is about no effect
condition-context: Vero cells, Shiga toxin protein synthesis inhibition reporter; at 38.7 µM
Among all 290,000 compounds or so, about 27,000 (9.3%) were called active. No stated cut-off is given here; in the data, active means inhibition mostly above about 28% (no sharp cut-off); inactive means mostly below about 43%. Shown is part of a subset that was picked to be rich in actives.
Classes used: yes (active), no (inactive)

>  <molecule>
Nc1ccc(C(=O)Nc2ccccc2N)cc1

>  <cat>
no

$$$$
>  <molecule>
C=CCc1ccccc1OCC(=O)N/N=C/c1ccccc1OCC

>  <cat>
no

$$$$
>  <molecule>
COc1cc(/C=N\Nc2nc(-c3cccs3)c(NC(C)=O)s2)ccc1O

>  <cat>
no

$$$$
>  <molecule>
O=C(NCc1ccncc1)C(=O)NCC1OCCN1S(=O)(=O)c1ccc(Br)cc1 (stereo unspecified)

>  <cat>
no

$$$$
>  <molecule>
CCOc1ccccc1/C=N/Nc1nc2ccccc2o1

>  <cat>
yes

$$$$
>  <molecule>
COc1ccc(/C=N/Nc2nc3ccccc3o2)cc1OC

>  <cat>
yes

$$$$
>  <molecule>
CCC(C)(C)NC(=O)C(c1ccc(OC)cc1)N(C(=O)CCC(=O)Nc1cc(C)on1)c1ccc(OC)cc1OC (stereo unspecified)

>  <cat>
no

$$$$
>  <molecule>
O=C(COc1ccc(Cl)cc1)NCCS(=O)(=O)N1CCN(c2ccc(F)cc2)CC1

>  <cat>
no

$$$$
>  <molecule>
COc1ccc(-n2nc(C(=O)Nc3cc(OC)c(OC)c(OC)c3)c3ccccc3c2=O)c(OC)c1

>  <cat>
no

$$$$
>  <molecule>
Cc1ccc(S(=O)(=O)N(CC(=O)Nc2cccnc2)c2ccc(Br)cc2)cc1

>  <cat>
no

$$$$
>  <molecule>
CCNc1nc(NCC)nc(N/N=C/c2ccc(O)c(OC)c2)n1

>  <cat>
no

$$$$

###

run-description: A qHTS for Small Molecule Inhibitors of Shiga Toxin; further: 0% is about no effect
condition-context: Vero cells, Shiga toxin protein synthesis inhibition reporter; at 38.7 µM, hits give high values
Among all 290,000 compounds or so, about 27,000 (9.3%) were called active. This excerpt belongs to a sample that is enriched for actives.
property-measured: inhibition (%)

>  <compound>
Cc1cc(C)c2nc(N(CCN(C)C)C(=O)/C=C/c3cccs3)sc2c1

>  <property-measured>
inhibition

>  <readout-value>
2.24

$$$$
>  <compound>
CCCCn1c(=O)c(C(C)=O)c(O)c2ccccc21

>  <property-measured>
inhibition

>  <readout-value>
-12.1

$$$$
>  <compound>
O=C(Cc1ccccc1Cl)N1CCOCC1

>  <property-measured>
inhibition

>  <readout-value>
-11.4

$$$$
>  <compound>
O=C1c2ccccc2C(=O)N1CCOc1ccc(F)cc1

>  <property-measured>
inhibition

>  <readout-value>
90.8

$$$$
>  <compound>
O=c1c(-c2cccc(Cl)c2)c[nH]n1-c1ccccc1

>  <property-measured>
inhibition

>  <readout-value>
77.1

$$$$
>  <compound>
O=C(CN1CCCCCC1)Nc1ccc(Cl)cc1F

>  <property-measured>
inhibition

>  <readout-value>
1.73

$$$$
>  <compound>
COc1ccccc1C(=O)N/C(=C/c1ccc2c(c1)OCO2)C(=O)Nc1cccc(C(=O)O)c1

>  <property-measured>
inhibition

>  <readout-value>
-9.43

$$$$
>  <compound>
CC(O)c1cccc(NC(=O)Cc2cccc3ccccc23)c1 (centres undefined)

>  <property-measured>
inhibition

>  <readout-value>
0.246

$$$$
>  <compound>
O=C(Nc1cccc(O)c1)c1ccc(C(=O)c2ccccc2)o1

>  <property-measured>
inhibition

>  <readout-value>
88

$$$$
>  <compound>
CC(=O)N1CCN(CC(=O)Nc2ccc(SC(F)F)cc2)CC1

>  <property-measured>
inhibition

>  <readout-value>
-12.2

$$$$
>  <compound>
Cc1cc(Cl)c(S(=O)(=O)Nc2ccc3c(c2)OCCO3)cc1OCC(N)=O

>  <property-measured>
inhibition

>  <readout-value>
99.8

$$$$
>  <compound>
COCn1c(COc2ccccc2)nc2ccccc21

>  <property-measured>
inhibition

>  <readout-value>
13.8

$$$$
>  <compound>
C/C(=C\C(=O)c1ccccc1)Nc1cccc(O)c1

>  <property-measured>
inhibition

>  <readout-value>
141

$$$$
>  <compound>
NC(=O)C1=C[C@H](c2csc3ccccc23)C[C@H](OCc2ccc(CO)cc2)O1

>  <property-measured>
inhibition

>  <readout-value>
24

$$$$
>  <compound>
Cc1cc(Cl)c(S(=O)(=O)N(C)C)cc1OCC(N)=O

>  <property-measured>
inhibition

>  <readout-value>
9.4

$$$$
>  <compound>
COc1cc(C(C(=O)NC2CCCC2)N(C(=O)c2ccco2)c2ccccc2C(C)=O)cc(OC)c1OC (centres undefined)

>  <property-measured>
inhibition

>  <readout-value>
-3.47

$$$$
>  <compound>
O=C(Nc1ccc(NC(=O)c2cccs2)cc1)c1ccc2ccccc2c1

>  <property-measured>
inhibition

>  <readout-value>
24.5

$$$$
>  <compound>
O=C(c1cc2cc(Br)cc(Br)c2oc1=O)N1CCOCC1

>  <property-measured>
inhibition

>  <readout-value>
11.8

$$$$
>  <compound>
COc1ccc(NC(=O)NCc2ccc3c(c2)OCO3)c(OC)c1

>  <property-measured>
inhibition

>  <readout-value>
-9.62

$$$$
>  <compound>
COc1cc(/C=C(/NC(=O)c2ccccc2)C(=O)Nc2cccc(O)c2)c([N+](=O)[O-])cc1OC

>  <property-measured>
inhibition

>  <readout-value>
-3.28

$$$$
>  <compound>
N#CCC(=O)N/N=C/c1cn(Cc2ccc3ccccc3c2)c2ccccc12

>  <property-measured>
inhibition

>  <readout-value>
-10.8

$$$$
>  <compound>
COc1ccc(CNS(=O)(=O)c2ccc(NC(=O)N3CCCCC3)cc2)cc1

>  <property-measured>
inhibition

>  <readout-value>
1.93

$$$$
>  <compound>
CCOc1ccc2[nH]c(C(=O)N/N=C/c3cccc(OC)c3OC)cc2c1

>  <property-measured>
inhibition

>  <readout-value>
14

$$$$
>  <compound>
COc1ccc(C)cc1NC(=O)NCCCCc1ccccc1

>  <property-measured>
inhibition

>  <readout-value>
14.6

$$$$
>  <compound>
CCN(CC)CCN1C(=O)C(=O)/C(=C(/O)c2ccccc2)C1c1ccccc1F (centres undefined)

>  <property-measured>
inhibition

>  <readout-value>
19.4

$$$$
>  <compound>
CCc1cccc(C)c1NS(=O)(=O)c1c(C)nc2sccn2c1=O

>  <property-measured>
inhibition

>  <readout-value>
-3.6

$$$$
>  <compound>
Cc1ccccc1N1CCN(C2CCCN(C(=O)c3cn4c(C)cccc4n3)C2)CC1 (centres undefined)

>  <property-measured>
inhibition

>  <readout-value>
-3.16

$$$$
>  <compound>
Cc1ccc(SCc2c(C(=O)N/N=C/c3cccnc3)nnn2-c2nonc2N)cc1

>  <property-measured>
inhibition

>  <readout-value>
-5.04

$$$$
>  <compound>
COc1ccc(OC)c(C(C)NC(=S)Nc2ccc(S(=O)(=O)Nc3ncccn3)cc2)c1 (centres undefined)

>  <property-measured>
inhibition

>  <readout-value>
-14

$$$$
>  <compound>
CCOc1ccc(CNC(=O)CCC(=O)N2CCSc3ccccc32)cc1

>  <property-measured>
inhibition

>  <readout-value>
5.1

$$$$
>  <compound>
O=C(Cc1cccc2ccccc12)Nc1ccc2oc(-c3ccccc3)nc2c1

>  <property-measured>
inhibition

>  <readout-value>
74.8

$$$$
>  <compound>
COc1cc(C(=O)NN(CCC#N)C2=NS(=O)(=O)c3ccccc32)cc(OC)c1OC

>  <property-measured>
inhibition

>  <readout-value>
-7

$$$$
>  <compound>
O=C(OCCN1C(=O)c2ccccc2C1=O)Oc1ccccc1

>  <property-measured>
inhibition

>  <readout-value>
-2.38

$$$$
>  <compound>
Cc1ccc(CC(=O)Nc2ccc(OC(F)F)c(Cl)c2)cc1C

>  <property-measured>
inhibition

>  <readout-value>
-4.66

$$$$
>  <compound>
Cc1cccc2c1N(CCOc1ccccc1)C(=O)C2=O

>  <property-measured>
inhibition

>  <readout-value>
-13.4

$$$$
>  <compound>
O=C(Cn1c(COc2ccccc2)nc2ccccc21)Nc1cc(Cl)c(Cl)cc1Cl

>  <property-measured>
inhibition

>  <readout-value>
3.93

$$$$
>  <compound>
O=C(Nc1ccnn1C1CCN(C/C=C/c2ccc(F)cc2)CC1)C1CCCC1

>  <property-measured>
inhibition

>  <readout-value>
12

$$$$
>  <compound>
CCN(CC)CCN1C(=O)C(=O)/C(=C(/O)c2ccc(OC)c(OC)c2)C1c1ccccn1 (centres undefined)

>  <property-measured>
inhibition

>  <readout-value>
59.8

$$$$
>  <compound>
C/C(=N\NC(=O)c1cc(-c2ccc(O)cc2)nc2ccccc12)c1cccnc1

>  <property-measured>
inhibition

>  <readout-value>
6.02

$$$$
>  <compound>
O=C(Cc1ccccc1)Nc1cccc(NC(=O)c2ccccc2)c1

>  <property-measured>
inhibition

>  <readout-value>
-14.6

$$$$
>  <compound>
CC(Oc1cccc(NC(=O)c2cccs2)c1)C(=O)c1ccccc1 (centres undefined)

>  <property-measured>
inhibition

>  <readout-value>
36.4

$$$$
>  <compound>
CCN(CC)CCN1C(=O)C(=O)/C(=C(/O)c2cnn(-c3ccccc3)c2C)C1c1cccs1 (centres undefined)

>  <property-measured>
inhibition

>  <readout-value>
79.5

$$$$
>  <compound>
CC(=O)n1c(C=Nc2ccccc2)c(O)c2ccccc21

>  <property-measured>
inhibition

>  <readout-value>
49.2

$$$$
>  <compound>
Cc1nn(CCCC(=O)NCc2ccccc2Cl)c(=O)c2nccn12

>  <property-measured>
inhibition

>  <readout-value>
-3.9

$$$$
